target_or_test_system: UniProt:P32245

{"columns": ["compound", "target_or_test_system", "Ki, nM"],
 "data": [
  ["Cc1nc2c(cc1-c1ncccn1)CC[C@@]1(CCN(C(=O)C(C)c3cc(OC(F)F)ncc3Cl)C1)N2 (single isomer, unassigned)", "UniProt:P32245", 0.54]
]}

====

target_or_test_system: Melanocortin receptor 4 (Homo sapiens, UniProt P32245)
Sequence (P32245 whole entry): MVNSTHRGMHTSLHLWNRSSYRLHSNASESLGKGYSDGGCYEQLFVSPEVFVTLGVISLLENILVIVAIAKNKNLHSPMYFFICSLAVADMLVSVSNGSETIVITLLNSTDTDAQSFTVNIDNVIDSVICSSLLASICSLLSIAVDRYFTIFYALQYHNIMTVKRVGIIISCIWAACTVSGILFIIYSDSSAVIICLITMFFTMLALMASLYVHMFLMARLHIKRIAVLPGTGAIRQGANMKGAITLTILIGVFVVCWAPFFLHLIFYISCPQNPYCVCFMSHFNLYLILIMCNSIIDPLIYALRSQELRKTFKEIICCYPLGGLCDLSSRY
assay_info: Antagonist activity at human MC4R expressed in CHO cells assessed as decrease in alpha-MSH induced cAMP level by measuring equilibrium binding constant preincubated for 30 mins followed by alpha-MSH addition measured after 30 mins by HTRF method
Type: functional, cell-based
run_parameters: filed as antagonist, time 60.0 min
Returns: string. Value is class 1 if measured Kb is below 0.2 nM, and class 0 if it is greater than or equal to it.

{"columns": ["compound", "category"],
 "data": [
  ["COc1cc([C@@H](C)C(=O)N2CC[C@@]3(CCc4cc(-c5nnn(C)n5)c(C)nc4N3)C2)c(Cl)cn1", "class 1"],
  ["COc1cc(OC)cc([C@@H](C)C(=O)N2CCC3(CCc4cc(-c5cnn(C)c5)c(C)nc4N3)C2)c1 (single isomer, unassigned)", "class 0"],
  ["COc1cc([C@@H](C)C(=O)N2CC[C@]3(CCc4cc(-c5nnn(C)n5)c(C)nc4N3)C2)c(Cl)cn1", "class 0"],
  ["COc1cc([C@@H](C)C(=O)N2CC[C@@]3(CCc4cc(-c5nc(C(F)F)n(C)n5)c(C)nc4N3)C2)c(Cl)cn1", "class 1"],
  ["Cc1nc2c(cc1-c1ncccn1)CC[C@@]1(CCN(C(=O)C(C)c3cc(OC(F)F)ncc3Cl)C1)N2 (single isomer, unassigned)", "class 1"],
  ["Cc1nc2c(cc1-c1ncccn1)CC[C@@]1(CCN(C(=O)[C@@H](C)c3ccc(OC(F)F)nc3)C1)N2", "class 0"],
  ["COc1cc([C@@H](C)C(=O)N2CC[C@@]3(CCc4cc(-c5nc6ccccn6n5)c(C)nc4N3)C2)c(Cl)cn1", "class 1"]
]}
